Attribution: paper PMC2647316

Molecular target: T1, GkDnaC R145A (Geobacillus kaustophilus HTA426, UniProt Q5KU75 1-454, R145A)
T1 sequence: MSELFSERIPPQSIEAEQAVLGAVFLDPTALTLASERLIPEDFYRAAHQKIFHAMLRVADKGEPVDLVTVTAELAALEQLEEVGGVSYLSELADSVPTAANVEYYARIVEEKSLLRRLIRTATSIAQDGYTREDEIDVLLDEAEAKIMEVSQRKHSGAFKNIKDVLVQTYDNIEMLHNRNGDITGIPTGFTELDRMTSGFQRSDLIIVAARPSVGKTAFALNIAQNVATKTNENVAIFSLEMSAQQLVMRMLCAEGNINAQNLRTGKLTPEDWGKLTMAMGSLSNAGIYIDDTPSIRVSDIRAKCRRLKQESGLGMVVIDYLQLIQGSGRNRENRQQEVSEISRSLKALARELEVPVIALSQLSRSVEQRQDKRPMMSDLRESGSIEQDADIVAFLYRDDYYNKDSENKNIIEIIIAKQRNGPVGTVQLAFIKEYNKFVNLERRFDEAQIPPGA
Test: SPR
measured_metric: pKd
Bear in mind: pKd is minus log10 of a mol/L concentration; give just that figure.

// field: pKd; key: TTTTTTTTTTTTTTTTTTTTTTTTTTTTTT (ssDNA) [5'Bio-(dT)30] ; value = 5.86
